- procedure_text: Binding affinity to Trypanosoma brucei […] assessed as inhibition constant
pKi: −log10 of the molar value.

>  <smiles_input>
COc1ccc(-c2cn(CCN(CC#N)CCP(=O)(O)O)c3ncnc(N)c23)cc1

>  <pKi>
4.96

$$$$
>  <smiles_input>
COc1ccc(-c2cn(CCN(CCO)CCP(=O)(O)O)c3ncnc(N)c23)cc1

>  <pKi>
5.65

$$$$
>  <smiles_input>
N#CCN(CCn1cc(-c2ccccc2)c2c(N)ncnc21)CCP(=O)(O)O

>  <pKi>
5.02

$$$$
>  <smiles_input>
Nc1ncnc2c1c(-c1ccccc1)cn2CCN(CCO)CCP(=O)(O)O

>  <pKi>
4.85

$$$$
>  <smiles_input>
COc1ccc(-c2cn(CCN(CCC#N)CCP(=O)(O)O)c3ncnc(N)c23)cc1

>  <pKi>
5.66

$$$$
>  <smiles_input>
COc1ccc(-c2cn(CCN(CCP(=O)(O)O)CCP(=O)(O)O)c3ncnc(N)c23)cc1

>  <pKi>
5.40

$$$$
>  <smiles_input>
N#CCCN(CCn1cc(-c2ccccc2)c2c(N)ncnc21)CCP(=O)(O)O

>  <pKi>
5.76

$$$$
>  <smiles_input>
Nc1ncnc2c1c(-c1ccccc1)cn2CCN(CCP(=O)(O)O)CCP(=O)(O)O

>  <pKi>
4.97

$$$$

====

- procedure_text: Cytotoxicity against human HL-60 cells assessed as cell growth inhibition
- Type: toxicity, cell-based
# note: boundary value 7 µM maps to label 0; IC50 below it maps to label 1

>  <smiles_input>
CCOC(=O)[C@H](Cc1ccccc1)NP(=O)(CCN(CC#N)CCn1cc(-c2ccc(OC)cc2)c2c(N)ncnc21)N[C@@H](Cc1ccccc1)C(=O)OCC

>  <answer_label>
label 1

$$$$
>  <smiles_input>
CCOC(=O)[C@H](Cc1ccccc1)NP(=O)(CCN(CCO)CCn1cc(-c2ccc(OC)cc2)c2c(N)ncnc21)N[C@@H](Cc1ccccc1)C(=O)OCC

>  <answer_label>
label 0

$$$$
>  <smiles_input>
CCOC(=O)[C@H](Cc1ccccc1)NP(=O)(CCN(CC#N)CCn1cc(-c2ccccc2)c2c(N)ncnc21)N[C@@H](Cc1ccccc1)C(=O)OCC

>  <answer_label>
label 0

$$$$
>  <smiles_input>
CCOC(=O)[C@H](Cc1ccccc1)NP(=O)(CCN(CCC#N)CCn1cc(-c2ccc(OC)cc2)c2c(N)ncnc21)N[C@@H](Cc1ccccc1)C(=O)OCC

>  <answer_label>
label 0

$$$$
>  <smiles_input>
CCOC(=O)[C@H](Cc1ccccc1)NP(=O)(CCN(CCn1cc(-c2ccc(OC)cc2)c2c(N)ncnc21)CCP(=O)(N[C@@H](Cc1ccccc1)C(=O)OCC)N[C@@H](Cc1ccccc1)C(=O)OCC)N[C@@H](Cc1ccccc1)C(=O)OCC

>  <answer_label>
label 1

$$$$
>  <smiles_input>
Nc1ncnc2c1ccn2[C@@H]1O[C@H](CO)[C@@H](O)[C@H]1O

>  <answer_label>
label 1

$$$$
>  <smiles_input>
CCOC(=O)[C@H](Cc1ccccc1)NP(=O)(CCN(CCn1cc(-c2ccccc2)c2c(N)ncnc21)CCP(=O)(N[C@@H](Cc1ccccc1)C(=O)OCC)N[C@@H](Cc1ccccc1)C(=O)OCC)N[C@@H](Cc1ccccc1)C(=O)OCC

>  <answer_label>
label 1

$$$$
>  <smiles_input>
CCOC(=O)[C@H](Cc1ccccc1)NP(=O)(CCN(CCC#N)CCn1cc(-c2ccccc2)c2c(N)ncnc21)N[C@@H](Cc1ccccc1)C(=O)OCC

>  <answer_label>
label 0

$$$$
>  <smiles_input>
CCOC(=O)[C@H](Cc1ccccc1)NP(=O)(CCN(CCO)CCn1cc(-c2ccccc2)c2c(N)ncnc21)N[C@@H](Cc1ccccc1)C(=O)OCC

>  <answer_label>
label 0

$$$$

====

- Test system: Trypanosoma brucei brucei
- procedure_text: Antitrypanosomal activity against Trypanosoma brucei brucei assessed as reduction in parasite growth by cell-based assay
- Type: functional, organism-based
Attribute: EC50
value_type: EC50 (nM)

>  <smiles_input>
CCOC(=O)[C@H](Cc1ccccc1)NP(=O)(CCN(CCn1cc(-c2ccccc2)c2c(N)ncnc21)CCP(=O)(N[C@@H](Cc1ccccc1)C(=O)OCC)N[C@@H](Cc1ccccc1)C(=O)OCC)N[C@@H](Cc1ccccc1)C(=O)OCC

>  <value_type>
EC50

>  <test_result>
1210

$$$$
>  <smiles_input>
Nc1ncnc2c1ccn2[C@@H]1O[C@H](CO)[C@@H](O)[C@H]1O

>  <value_type>
EC50

>  <test_result>
160

$$$$
>  <smiles_input>
CCOC(=O)[C@H](Cc1ccccc1)NP(=O)(CCN(CCn1cc(-c2ccc(OC)cc2)c2c(N)ncnc21)CCP(=O)(N[C@@H](Cc1ccccc1)C(=O)OCC)N[C@@H](Cc1ccccc1)C(=O)OCC)N[C@@H](Cc1ccccc1)C(=O)OCC

>  <value_type>
EC50

>  <test_result>
580

$$$$
>  <smiles_input>
CCOC(=O)[C@H](Cc1ccccc1)NP(=O)(CCN(CC#N)CCn1cc(-c2ccc(OC)cc2)c2c(N)ncnc21)N[C@@H](Cc1ccccc1)C(=O)OCC

>  <value_type>
EC50

>  <test_result>
2240

$$$$
>  <smiles_input>
CCOC(=O)[C@H](Cc1ccccc1)NP(=O)(CCN(CCO)CCn1cc(-c2ccccc2)c2c(N)ncnc21)N[C@@H](Cc1ccccc1)C(=O)OCC

>  <value_type>
EC50

>  <test_result>
1900

$$$$
>  <smiles_input>
CCOC(=O)[C@H](Cc1ccccc1)NP(=O)(CCN(CCO)CCn1cc(-c2ccc(OC)cc2)c2c(N)ncnc21)N[C@@H](Cc1ccccc1)C(=O)OCC

>  <value_type>
EC50

>  <test_result>
3470

$$$$

====

- procedure_text: Selectivity index, ratio of IC50 for human NHDF cells to EC50 for Trypanosoma brucei brucei
- Type: functional

>  <smiles_input>
CCOC(=O)[C@H](Cc1ccccc1)NP(=O)(CCN(CCO)CCn1cc(-c2ccccc2)c2c(N)ncnc21)N[C@@H](Cc1ccccc1)C(=O)OCC

>  <comparison_sign>
=

>  <Selectivity Index>
10

$$$$
>  <smiles_input>
CCOC(=O)[C@H](Cc1ccccc1)NP(=O)(CCN(CCC#N)CCn1cc(-c2ccccc2)c2c(N)ncnc21)N[C@@H](Cc1ccccc1)C(=O)OCC

>  <comparison_sign>
>

>  <Selectivity Index>
4.8

$$$$
>  <smiles_input>
CCOC(=O)[C@H](Cc1ccccc1)NP(=O)(CCN(CCC#N)CCn1cc(-c2ccc(OC)cc2)c2c(N)ncnc21)N[C@@H](Cc1ccccc1)C(=O)OCC

>  <comparison_sign>
=

>  <Selectivity Index>
2.4

$$$$

====

- procedure_text: Selectivity index, ratio of IC50 for human NHDF cells to EC50 for Trypanosoma brucei brucei
- Type: functional
value_type: Selectivity Index

>  <smiles_input>
CCOC(=O)[C@H](Cc1ccccc1)NP(=O)(CCN(CC#N)CCn1cc(-c2ccc(OC)cc2)c2c(N)ncnc21)N[C@@H](Cc1ccccc1)C(=O)OCC

>  <test_result>
3.5

$$$$
>  <smiles_input>
CCOC(=O)[C@H](Cc1ccccc1)NP(=O)(CCN(CCn1cc(-c2ccccc2)c2c(N)ncnc21)CCP(=O)(N[C@@H](Cc1ccccc1)C(=O)OCC)N[C@@H](Cc1ccccc1)C(=O)OCC)N[C@@H](Cc1ccccc1)C(=O)OCC

>  <test_result>
7.4

$$$$
>  <smiles_input>
CCOC(=O)[C@H](Cc1ccccc1)NP(=O)(CCN(CCO)CCn1cc(-c2ccc(OC)cc2)c2c(N)ncnc21)N[C@@H](Cc1ccccc1)C(=O)OCC

>  <test_result>
3.8

$$$$
>  <smiles_input>
CCOC(=O)[C@H](Cc1ccccc1)NP(=O)(CCN(CC#N)CCn1cc(-c2ccccc2)c2c(N)ncnc21)N[C@@H](Cc1ccccc1)C(=O)OCC

>  <test_result>
6.5

$$$$
>  <smiles_input>
Nc1ncnc2c1ccn2[C@@H]1O[C@H](CO)[C@@H](O)[C@H]1O

>  <test_result>
0.4

$$$$
>  <smiles_input>
CCOC(=O)[C@H](Cc1ccccc1)NP(=O)(CCN(CCn1cc(-c2ccc(OC)cc2)c2c(N)ncnc21)CCP(=O)(N[C@@H](Cc1ccccc1)C(=O)OCC)N[C@@H](Cc1ccccc1)C(=O)OCC)N[C@@H](Cc1ccccc1)C(=O)OCC

>  <test_result>
16.4

$$$$

====

Attribute: IC50
- procedure_text: Cytotoxicity against human HepG2 cells assessed as cell growth inhibition
- Type: toxicity, cell-based

>  <smiles_input>
CCOC(=O)[C@H](Cc1ccccc1)NP(=O)(CCN(CCn1cc(-c2ccc(OC)cc2)c2c(N)ncnc21)CCP(=O)(N[C@@H](Cc1ccccc1)C(=O)OCC)N[C@@H](Cc1ccccc1)C(=O)OCC)N[C@@H](Cc1ccccc1)C(=O)OCC

>  <IC50>
6.6 µM

$$$$
>  <smiles_input>
CCOC(=O)[C@H](Cc1ccccc1)NP(=O)(CCN(CC#N)CCn1cc(-c2ccc(OC)cc2)c2c(N)ncnc21)N[C@@H](Cc1ccccc1)C(=O)OCC

>  <IC50>
> 20 µM

$$$$
>  <smiles_input>
CCOC(=O)[C@H](Cc1ccccc1)NP(=O)(CCN(CCC#N)CCn1cc(-c2ccc(OC)cc2)c2c(N)ncnc21)N[C@@H](Cc1ccccc1)C(=O)OCC

>  <IC50>
> 20 µM

$$$$
>  <smiles_input>
CCOC(=O)[C@H](Cc1ccccc1)NP(=O)(CCN(CCO)CCn1cc(-c2ccccc2)c2c(N)ncnc21)N[C@@H](Cc1ccccc1)C(=O)OCC

>  <IC50>
14.7 µM

$$$$
>  <smiles_input>
CCOC(=O)[C@H](Cc1ccccc1)NP(=O)(CCN(CC#N)CCn1cc(-c2ccccc2)c2c(N)ncnc21)N[C@@H](Cc1ccccc1)C(=O)OCC

>  <IC50>
> 20 µM

$$$$
>  <smiles_input>
CCOC(=O)[C@H](Cc1ccccc1)NP(=O)(CCN(CCO)CCn1cc(-c2ccc(OC)cc2)c2c(N)ncnc21)N[C@@H](Cc1ccccc1)C(=O)OCC

>  <IC50>
> 20 µM

$$$$

Value source: ChEMBL document CHEMBL5338716
